Origin of values: ChEMBL document CHEMBL1127224

The reader will find reported pKi values listed item by item below.
SUBJECT OF TEST: Renin (Homo sapiens)
Sequence (P00797 whole entry): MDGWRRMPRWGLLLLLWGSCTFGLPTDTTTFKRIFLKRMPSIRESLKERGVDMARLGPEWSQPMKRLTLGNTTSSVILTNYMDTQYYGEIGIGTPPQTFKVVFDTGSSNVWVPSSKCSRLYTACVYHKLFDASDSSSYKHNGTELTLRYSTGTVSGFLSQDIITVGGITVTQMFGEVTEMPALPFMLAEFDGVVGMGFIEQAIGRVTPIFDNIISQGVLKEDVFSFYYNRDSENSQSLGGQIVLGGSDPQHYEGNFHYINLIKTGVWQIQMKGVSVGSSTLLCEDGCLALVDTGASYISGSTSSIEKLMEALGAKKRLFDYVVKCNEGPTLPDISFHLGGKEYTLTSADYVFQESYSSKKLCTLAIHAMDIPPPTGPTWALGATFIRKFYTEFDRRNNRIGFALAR
Just so you know, pKi here is -log10 of the concentration in molar units; reply with that number alone.

Some solved entries appear below for comparison.
CCC(C)[C@H](NC(=O)[C@@H](C[C@H](O)[C@H](CC1CCCCC1)NC(=O)[C@H](CC(N)=O)NC(=O)c1ccc2ccccc2n1)C(C)C)C(=O)NCc1ccccn1 (some centres undefined)	6.67
CCC(C)[C@H](NC(=O)[C@@H](C[C@H](O)[C@H](CC1CCCCC1)NC(=O)[C@H](Cc1c[nH]cn1)NC(=O)COc1cccc2ccccc12)C(C)C)C(=O)NCc1ccccn1 (some centres undefined)	8.70
CCC(C)[C@H](NC(=O)[C@@H](C[C@H](O)[C@H](CC1CCCCC1)NC(=O)OC(C)(C)C)C(C)C)C(=O)NCc1ccccn1 (some centres undefined)	5.92

# ---- query molecule ----
(Q) Please tell me: pKi of "CC[C@H](C)[C@H](NC(=O)[C@H](C(C)C)[C@@H](O)[C@H](O)[C@H](CC1CCCCC1)NC(=O)[C@H](Cc1c[nH]cn1)NC(=O)COc1cccc2ccccc12)C(=O)NCc1ccccn1" , system Renin (Homo sapiens)?
(A) 8.70
